These measurements were taken from a melting point compilation (Tetko et al.; mined from patent text by program, amines drawn as free bases though some values may be those of a salt).

A collection of compounds and their measured melting point

Some compounds with known melting point results, for comparison:
Oc1ccc(Cl)cc1CN1COC(c2ccc(C(F)(F)F)cc2)=N1
144 to 145 °C
COc1cncc(-c2ccc(OC3SCC(OC(C)=O)C(OC(C)=O)C3OC(C)=O)cn2)c1 (centres undefined)
155 °C
O=C(OC(c1ccc(Cl)cc1Cl)C(Oc1ccc(Cl)cc1)n1cncn1)c1ccc(Cl)cc1Cl (centres undefined)
132 to 135 °C

Switching to the query record.
Task: What melting point value was documented for this compound, CC(Oc1ccc(F)cc1F)(C(=O)Nc1nccs1)c1ccc(S(C)(=O)=O)cc1 (centres undefined) ?
Result: 89 to 90 °C

====

A collection of compounds and their measured melting point

Some compounds with known melting point results, for comparison:
C=CCNc1nc(NCC=C)c2cc(Cl)ccc2n1
78 to 79 °C
CCCCC(CC)(CO)C(=O)O (stereo unspecified)
45 to 46 °C
Cc1cn(-c2c(F)cc3c(=O)c(C(=O)O)cn(C4CC4)c3c2F)cn1
215 to 223 °C
O=C1N(CCCOCc2ccccc2)c2ccccc2C12COc1cc3c(cc12)CCO3 (stereo unspecified)
112 to 113 °C
O=C(NCC1CCc2n[nH]cc2C1)[C@@H]1CCCN1C(=O)[C@@H](CC1CCCCC1)NS(=O)(=O)Cc1ccccc1 (stereo partly specified)
100 to 103 °C

Switching to the query record.
Task: What melting point value was documented for this compound, `Cc1nc(COc2cc(-n3c(=O)cc(C(F)(F)F)n(C)c3=O)c(F)cc2Cl)cs1` ?
Result: 145 to 147 °C

====

test_readout: melting point

Some compounds with known melting point results, for comparison:
O=C(O)c1ccccc1-c1nc(-c2ccc(Cl)c(Cl)c2)no1
202 to 204 °C
Cc1c(F)cccc1Cc1c(-c2ccccc2)c2cc(O)cnn2c1C(=O)N1CCNCC1
206 to 208 °C

Task: What melting point value was documented for this compound, `O=C(NCC1(c2ccccc2)CCCCC1)Nc1ccccc1` ?
Result: 162 to 164 °C

====

A collection of compounds and their measured melting point

Some compounds with known melting point results, for comparison:
O=C(Cc1ccccc1)N1CCc2[nH]c(=O)n3nc(-c4ccccc4F)nc3c2C1
310 to 313 °C
Cc1cc(Nc2ccc(Cl)c(Cl)c2)nc(-n2nc(C)cc2C)n1
135 to 138 °C
Cc1cc(OC(=O)c2ccccc2)cc(C)c1O
140 to 141 °C

Task: What melting point value was documented for this compound, `CCC(=O)Nc1c([N+](=O)[O-])c(C(C)(C)C)nn1-c1c(Cl)cc(C(F)(F)F)cc1Cl` ?
Result: 151 to 152 °C

Task: What melting point value was documented for this compound, `CC(=O)c1cc(C)cc(Br)c1O` ?
Result: 81 to 82 °C

Task: What melting point value was documented for this compound, `FC(F)(F)c1ccc(Oc2ccc3nonc3c2)c(Cl)c1` ?
Result: 65 to 66 °C

====

A collection of molecules and their measured melting point

CC(C)n1nc(-c2c(-c3ccccc3)nn3ccc(OCCN4CCCC4)cc23)ccc1=O
149 to 150 °C

Task: What melting point value was documented for this molecule, `CCOC(=O)c1cc(CCc2cc(OC)ccc2OC)ccc1NC(C)=O` ?
Result: 93 °C

Task: What melting point value was documented for this molecule, `OCc1ccc(-c2nn(Cc3ccccc3)c3ccccc23)o1` ?
Result: 108 to 109 °C

Task: What melting point value was documented for this molecule, CC(C)(CC(O)(C(=O)Nc1ccc([N+](=O)[O-])c(C(F)(F)F)c1)C(F)(F)F)c1ccccc1 (stereo not drawn) ?
Result: 119 to 120 °C

Task: What melting point value was documented for this molecule, `Cc1cccc2ncc(C(=O)NCc3ccc(Cl)cc3)c(O)c12` ?
Result: 205 to 206 °C

Task: What melting point value was documented for this molecule, `COc1ccc(Cn2cnc3c(Cl)ncnc32)cc1OC` ?
Result: 159 to 163 °C

Task: What melting point value was documented for this molecule, CCNC(=O)c1ccc(N2CCN(Cc3cnc4c(c3)NC(=O)C3CCCCN43)CC2)cc1 (stereo not drawn) ?
Result: 233 °C

Task: What melting point value was documented for this molecule, `CCOC(=O)CCc1cn(-c2ccc(Br)cn2)nc1C(C)(C)C` ?
Result: 94 to 95 °C

Task: What melting point value was documented for this molecule, `CN(C)c1ccc(C(=O)NC(=O)Nc2ccc3c(c2)NC(=O)/C3=C\c2ccc[nH]2)cc1` ?
Result: 285 to 290 °C

Task: What melting point value was documented for this molecule, `CCCCc1oc2ccccc2c1C(=O)c1ccc2c(Br)c(OCC(=O)O)ccc2c1` ?
Result: 163 to 165 °C

Task: What melting point value was documented for this molecule, `CCCCCCCCS(=O)(=O)NCCC(=O)O` ?
Result: 122 °C

Task: What melting point value was documented for this molecule, CCOC(=O)c1cc(OC2CCCCC2=O)[nH]n1 (stereo not drawn) ?
Result: 122 to 124 °C

Task: What melting point value was documented for this molecule, CC12CCC3c4ccc(OCc5ccccc5)c([N+](=O)[O-])c4CCC3C1CCC2=O (stereo not drawn) ?
Result: 198 to 199 °C

Task: What melting point value was documented for this molecule, `CC[C@H]1C(=O)N([Si](C)(C)C(C)(C)C)[C@H]1C(=O)C=[N+]=[N-]` ?
Result: 88 to 89 °C

Task: What melting point value was documented for this molecule, `Nc1ncnc2c1c(-c1ccc(Oc3ccccc3)cc1)cn2CC(=O)NCCOCCO` ?
Result: 145 to 147 °C

Task: What melting point value was documented for this molecule, CC(C)C1NC(=O)CN1C(=O)CN (stereo not drawn) ?
Result: 141 to 143 °C

Task: What melting point value was documented for this molecule, `O=C1C2=C(OCCO2)C(=O)c2cc(Cl)ccc21` ?
Result: 209 to 210 °C

Task: What melting point value was documented for this molecule, `CC=CCn1c(C)c(C)c2cnnc(OCc3ccc(Cl)cc3F)c21` ?
Result: 106 to 109 °C

Task: What melting point value was documented for this molecule, `CC(C)(C)c1ccc(S(=O)(=O)CS(=O)(=O)c2ccc(C(C)(C)C)cc2)cc1` ?
Result: 150 to 152 °C
